assay info: Liver Microsome Stability Assay (mouse)
test conditions: mouse liver microsomes, with NADPH, 1.0 uM compound
Quick list: Liver Microsome Stability (Multiple Species): Mouse - % Remaining after 30 min w/NADPH per entry.
Give the number; % is assumed, so skip it.

> print(dat)
                                   compound  recorded.value
1  CN(C)c1ccc(N2CCC[C@@H]2c2csc(NC(=O)c3cccn3Cc3ccncc3)n2)cc1            0.26
2  Cc1ccc(N2CCC[C@@H]2c2csc(NC(=O)c3cccn3Cc3ccncc3)n2)cc1            6.31
3  O=C(Nc1nc([C@H]2CCCN2c2ccc(OCCO)cc2)cs1)c1cccn1Cc1ccnc(F)c1            2.18

Alright, here's another compound for you.
In: Recorded Liver Microsome Stability (Multiple Species): Mouse - % Remaining after 30 min w/NADPH of O=C1CCCC(/C=C/c2csc(NC(=O)c3cccn3Cc3ccncc3)n2)N1 (stereo not shown) , please.
Out: 4.96
